target: recombinant soluble homotrimeric HA of A/Solomon Islands/3/06 (H1N1) (Influenza A virus A/Solomon Islands/3/2006(H1N1)); experiment: trimeric HA microarray, transfection supernatant set 3; settings: remark: other sources report otherwise
This section presents binders with their documented Trimeric HA Binding: RLU values.
QUANTITY MEASURED: Trimeric HA Binding: RLU (RLU)

[
  {
    "BINDER": "TCN-532 (5262_H18) (antibody, V domains shown) VH: QVQLQESGPGLVKPSETLSLTCTVSGGSVSSETYYWSWIRQPPGKGLEWIGYIYYIGNTDYRPSLKSRVTISLDTSKNQFSLKLSSVTAADTAVYYCARGAYYDSSGYPAFYIWGQGTMVTVSS VL: QSVLTQPPSVSGAPGQRVTISCTGSSSNIGSDYDVHWYKQLPGTAPKLLIFGNSNRPSGVPDRFSGSKSGTSASLAITGLQAEDEADYYCQSYDSSLSGFHVFGSGTKVTVL",
    "TEST RESULT": 59
  },
  {
    "BINDER": "TCN-530 (5248_H10a) (antibody, V domains shown) VH: QVQLVQSGAEVRKPGSSVKVSCKASGGPFMSYAIGWVRQAPGQGLEWMGGINPVFGRPHYAQKFQGRVTIATDDSTKTSYMELSSLTSEDTGMYYCASRYSRSSPGTFESWGQGTLVTVSS VL: EIVMTQFPATLSVSPGERVTLSCRASQSVSNNLAWYQQKPGQPPRLLIYDASTRATGVPAKFSGTGSGTEFTLSISSLQSEDFAVYYCQQYHNWPPSYSFGLGTKLEIK",
    "TEST RESULT": 13800
  },
  {
    "BINDER": "TCN-523 (5248_A17) (antibody, V domains shown) VH: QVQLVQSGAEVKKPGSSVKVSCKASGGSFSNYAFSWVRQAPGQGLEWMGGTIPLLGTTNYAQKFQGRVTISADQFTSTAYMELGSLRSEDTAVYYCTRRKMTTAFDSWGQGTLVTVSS VL: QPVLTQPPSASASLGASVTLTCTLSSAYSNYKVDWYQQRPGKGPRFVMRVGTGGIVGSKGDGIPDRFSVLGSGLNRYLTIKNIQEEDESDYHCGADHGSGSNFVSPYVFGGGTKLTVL",
    "TEST RESULT": 11000
  },
  {
    "BINDER": "TCN-504 (3251_K17) (antibody, V domains shown) VH: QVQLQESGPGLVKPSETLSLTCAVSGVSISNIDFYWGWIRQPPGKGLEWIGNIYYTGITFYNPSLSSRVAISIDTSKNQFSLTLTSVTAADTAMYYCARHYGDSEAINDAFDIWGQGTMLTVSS VL: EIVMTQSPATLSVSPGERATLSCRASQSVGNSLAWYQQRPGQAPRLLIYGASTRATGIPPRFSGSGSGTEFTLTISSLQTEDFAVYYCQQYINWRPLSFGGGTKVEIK",
    "TEST RESULT": 32700
  }
]
